Source of measurements: patent US12139508B2

# Protocol text: Pharmacokinetic assay in Balb/c mice (plasma and brain tissue)
# Type: in vivo
# Measurement parameters: mouse, po; plasma, 5 mg/kg p.o., male Balb/c mice; read-out: Peak time tmax
Quantity kind: Tmax (h)

- C[C@@]1(O)CC[C@H]2[C@H](CC[C@@H]3[C@@H]2CC[C@@]2(C)[C@H]3[C@@H]3C[C@@H]3[C@@H]2C(=O)Cn2ncnn2)C1: 0.5
- C[C@@]1(O)CC[C@H]2[C@H](CC[C@@H]3[C@@H]2CC[C@@]2(C)[C@H]3[C@@H]3C[C@@H]3[C@@H]2C(=O)Cn2cc([N+](=O)[O-])cn2)C1: 1
- C[C@@]1(O)CC[C@H]2[C@H](CC[C@@H]3[C@@H]2CC[C@@]2(C)[C@H]3[C@H](C3CC3)C[C@@H]2C(=O)Cn2ccnn2)C1: 1
- C[C@@H]1C[C@H](C(=O)Cn2cc(C#N)c(Cl)n2)[C@@]2(C)CC[C@H]3[C@@H](CC[C@@H]4C[C@](C)(O)CC[C@@H]43)[C@H]12: 0.5
- C[C@@]1(O)CC[C@H]2[C@H](CC[C@@H]3[C@@H]2CC[C@@]2(C)[C@H]3[C@H](C3CC3)C[C@@H]2C(=O)Cn2ncnn2)C1: 1

---

# Protocol text: Pharmacokinetic assay in Balb/c mice (plasma and brain tissue)
# Format: in vivo
# Measurement parameters: mouse, po; brain tissue, 5 mg/kg p.o., male Balb/c mice; read-out: Half-life t1/2 (converted)
Param threshold (2 h) applies to half-life; output Criterion met when value >= threshold, Criterion not met when value < threshold.

• C[C@@]1(O)CC[C@H]2[C@H](CC[C@@H]3[C@@H]2CC[C@@]2(C)[C@H]3[C@@H]3C[C@@H]3[C@@H]2C(=O)Cn2cc(C(F)(F)F)cn2)C1 = Criterion met
• C[C@@]1(O)CC[C@H]2[C@H](CC[C@@H]3[C@@H]2CC[C@@]2(C)[C@H]3[C@@H]3C[C@@H]3[C@@H]2C(=O)Cn2ccc(C(F)(F)F)n2)C1 = Criterion not met
• C[C@@]1(O)CC[C@H]2[C@H](CC[C@@H]3[C@@H]2CC[C@@]2(C)[C@H]3[C@@H]3C[C@@H]3[C@@H]2C(=O)Cn2cc([N+](=O)[O-])cn2)C1 = Criterion not met
• C[C@@]1(O)CC[C@H]2[C@H](CC[C@@H]3[C@@H]2CC[C@@]2(C)[C@H]3[C@@H]3C[C@@H]3[C@@H]2C(=O)Cn2ccc(C#N)n2)C1 = Criterion not met
• C[C@@H]1C[C@H](C(=O)Cn2ncnn2)[C@@]2(C)CC[C@H]3[C@@H](CC[C@@H]4C[C@](C)(O)CC[C@@H]43)[C@H]12 = Criterion not met

---

# Protocol text: Pharmacokinetic assay in Balb/c mice (plasma and brain tissue)
# Format: in vivo
# Measurement parameters: mouse, po; brain tissue, 5 mg/kg p.o., male Balb/c mice; read-out: Area under curve AUC0-t
Quantity kind: AUC(0-t) (ng·h/mL)

- C[C@@]1(O)CC[C@H]2[C@H](CC[C@@H]3[C@@H]2CC[C@@]2(C)[C@H]3[C@@H]3C[C@@H]3[C@@H]2C(=O)Cn2cc([N+](=O)[O-])cn2)C1 [Example 103]: 1680
- C[C@@]1(O)CC[C@H]2[C@H](CC[C@@H]3[C@@H]2CC[C@@]2(C)[C@H]3[C@H](C3CC3)C[C@@H]2C(=O)Cn2ccc(C#N)n2)C1 [Example 72]: 2050
- C[C@@]1(O)CC[C@H]2[C@H](CC[C@@H]3[C@@H]2CC[C@@]2(C)[C@H]3[C@H](C3CC3)C[C@@H]2C(=O)Cn2ccnn2)C1 [Example 145]: 4820
- C[C@@H]1C[C@H](C(=O)Cn2nc(C#N)cc2C#N)[C@@]2(C)CC[C@H]3[C@@H](CC[C@@H]4C[C@](C)(O)CC[C@@H]43)[C@H]12 [Example 135]: 3740
- C[C@@]1(O)CC[C@H]2[C@H](CC[C@@H]3[C@@H]2CC[C@@]2(C)[C@H]3[C@@H]3C[C@@H]3[C@@H]2C(=O)Cn2ccc(C#N)n2)C1 [Example 3]: 719
- C[C@@]1(O)CC[C@H]2[C@H](CC[C@@H]3[C@@H]2CC[C@@]2(C)[C@H]3[C@@H]3C[C@@H]3[C@@H]2C(=O)Cn2cc(C#N)cn2)C1 [Example 2]: 840
- Cc1nnn(CC(=O)[C@H]2C[C@@H](C3CC3)[C@H]3[C@@H]4CC[C@@H]5C[C@](C)(O)CC[C@@H]5[C@H]4CC[C@@]32C)n1 [Example 74]: 5850
- C[C@@]1(O)CC[C@H]2[C@H](CC[C@@H]3[C@@H]2CC[C@@]2(C)[C@H]3[C@H](C3CC3)C[C@@H]2C(=O)Cn2nccn2)C1 [Example 73]: 1100
- C[C@@]1(O)CC[C@H]2[C@H](CC[C@@H]3[C@@H]2CC[C@@]2(C)[C@H]3[C@H](C3CC3)C[C@@H]2C(=O)Cn2ncnn2)C1 [Example 146]: 8680
- CC[C@@H]1C[C@H](C(=O)Cn2ccnn2)[C@@]2(C)CC[C@H]3[C@@H](CC[C@@H]4C[C@](C)(O)CC[C@@H]43)[C@H]12 [Example 140]: 4330
- C[C@@H]1C[C@H](C(=O)Cn2ncnn2)[C@@]2(C)CC[C@H]3[C@@H](CC[C@@H]4C[C@](C)(O)CC[C@@H]43)[C@H]12 [Example 63]: 603
